assayed_target: GDF8 (myostatin), mature (Homo sapiens) (UniProt O14793)
Sequence (O14793 267-375): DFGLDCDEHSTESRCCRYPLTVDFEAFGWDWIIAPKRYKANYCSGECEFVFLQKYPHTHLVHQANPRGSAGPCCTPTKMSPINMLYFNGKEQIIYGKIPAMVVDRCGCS
condition_notes: TrpdU at each W (n in listing); with Z-block
Assignment: determine reported Kd for the given sequences.
Give bare numbers, in nM.

CTCTGAACTTCTAATGTCTCTTGCATTTTATCGCATTGATTTCTCCAACA [14583-19_3]; 1.16

In the following, a different sequence is considered.
Q: State its Kd for this sequence: TGTTAGAGTCCTTTATGAGTCTAG [14583-49_29]
Ans: 0.228

====

assayed_target: GDF11, mature (Homo sapiens) (UniProt O95390)
Sequence: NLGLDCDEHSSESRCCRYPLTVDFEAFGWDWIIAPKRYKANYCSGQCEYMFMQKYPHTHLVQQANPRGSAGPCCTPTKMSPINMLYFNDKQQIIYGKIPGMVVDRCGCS
condition_notes: TrpdU at each W (n in listing); 0.1 uM Z-block; low binding plateau
reported_endpoint: Kd
Quote the value and follow it with the unit of measurement.

Q: Look up and report measured Kd for this entry: CTCTGATACGGCCTTAGTGTTAGAGTCCTTTATGAGTCTAGACCACAACA [14583-49_3]
Ans: 1.11 nM
